This collection of values is drawn from PubChem BioAssay AID256.

Measured T/C accompanies every entry in the list below.
Tested on: CD2F1 mice, L1210 leukemia ip, survival T/C
measurement.protocol: NCI In Vivo Anticancer Drug Screen. Data for tumor model L1210 Leukemia (intraperitoneal) in CD2F1 (CDF1) mice
condition.summary: endpoint: mean survival time; dose: 400.0 mg/kg/injection; schedule: Q01DX001 (ip); vehicle: saline with Tween-80; higher = longer survival
Inconclusive results and toxic doses are left out.

input: What T/C appears in the records for this molecule with CD2F1 mice, L1210 leukemia ip, survival T/C? Cc1cc(C)c(NC(=O)CC#N)cc1C
output: 102 % of control

input: Now try CCOC(=O)C(=Cc1ccc(O)c(OC)c1)C(=O)OCC .
output: 108 % of control

input: Also CC(=O)N1NC2C(=O)N(C3CCCCC3)CC2C1c1ccc(N(C)C)cc1 (stereo not given) ?
output: 100 % of control

input: Subsequent entry: S=c1sc2ccccc2n1CN1CCCCC1
output: 108 % of control

input: Would you kindly repeat that for O=S(=O)(Nc1ccc(CCc2ccc(NS(=O)(=O)c3ccccc3)cc2)cc1)c1ccccc1 ?
output: 92 % of control

input: Continue with Nc1cc(=S)c2ncn(C3OC(CO)C(O)C3O)c2[nH]1 (stereo not given)
output: 100 % of control

input: Okay, and CN(C)c1ccc(NS(=O)(=O)c2ccccc2)cc1 ?
output: 97 % of control

input: Follow-up entry: CC(=O)OCC(=O)C1CCC2C3CCC4CC(OC(C)=O)CCC4(C)C3CCC12C (stereo not given)
output: 105 % of control

input: Lookup O=C(OC1C=Cc2ccccc21)c1ccc([N+](=O)[O-])cc1 (stereo not given)
output: 97 % of control

input: Can you handle OCC(O)C(O)C(O)C(SCc1ccccc1)SCc1ccccc1 (stereo not given) next?
output: 89 % of control

input: One more molecule: COc1cc([N+](=O)[O-])ccc1NC(=O)Nc1nccs1
output: 100 % of control

input: Repeat for the following molecule: CCCCCCCCCCCCCCOc1ccc(OCCCCCCCCC)cc1
output: 95 % of control

input: Param item: FCCc1cccc(C(F)(F)F)c1
output: 101 % of control

input: What about this molecule? O=C(N/N=C\c1ccc(Cl)cc1)C(=O)N/N=C\c1ccc(Cl)cc1
output: 89 % of control

* * *

Test system: CD2F1 mice, L1210 leukemia ip, survival T/C
measurement.protocol: NCI In Vivo Anticancer Drug Screen. Data for tumor model L1210 Leukemia (intraperitoneal) in CD2F1 (CDF1) mice
condition.summary: endpoint: mean survival time; dose: 50.0 mg/kg/injection; schedule: Q01DX009 (ip); vehicle: saline with Tween-80; higher = longer survival
Toxic doses and inconclusive results are not listed.
quantity.name: T/C

Consider the reported T/C for these compounds:
- compound: "COC(=O)/C(C#N)=C\\c1ccccc1"
  T/C: "95 % of control"
- compound: "Nc1nc(N)nc(C(=O)CCC(=O)O)n1"
  T/C: "95 % of control"

input: What value of T/C has been reported for the following compound? CN(C)c1nc(=[N+](C)C)ss1
output: 104 % of control

input: Cc1ccc(NC(=O)OCCOc2ccc([N+](=O)[O-])cc2)c(C)c1 ?
output: 93 % of control

input: What about COC1(OC)C2C=CC1CC2 ?
output: 109 % of control

input: Please give the result for OC(CC1=NNC(=S)NC1)(C(F)(F)F)C(F)(F)F too.
output: 94 % of control
